# experimentalTarget: UniProtKB P10721
# assay: c-Kit biochemical assay (AlphaScreen kinase activity)
Items are presented alongside their recorded IC50.

Solved entries:
1) COc1ccc(-c2[nH]c(C3CCN(c4ncnc5[nH]c(-c6ccnc(OC)c6)cc45)CC3)nc2C(F)(F)F)cc1: 0.0001 to 1 µM
2) Cc1nc(C2(C)CCN(c3ncnc4[nH]c(-c5ccc(N6CCOCC6)nc5)cc34)CC2)[nH]c1-c1ccc(C(F)F)cc1: 0.0001 to 1 µM
3) COc1cc(-c2cc3c(N4CCC(c5nc(C6CC6)c(-c6ccccc6)[nH]5)CC4)ncnc3[nH]2)ccn1: 0.0001 to 1 µM
4) Cc1ccc(-c2[nH]c(C3CCN(c4ncnc5[nH]c(-c6ccc(F)cc6)cc45)CC3)nc2C(F)(F)F)cc1: 0.0001 to 1 µM
5) Cc1cc2c(N3CCC(C)(c4nc(C)c(-c5ccc(F)cc5)[nH]4)CC3)ncnc2[nH]1: 1 to 10 µM
6) Cc1nc(C2CCN(c3ncnc4[nH]c(-c5cnn(C(F)F)c5)cc34)CC2)[nH]c1-c1ccc2c(c1)OCO2: 0.0001 to 1 µM
7) Cc1nc(C2CCN(c3ncnc4[nH]c(-c5ccc(C#N)cc5)cc34)CC2)[nH]c1-c1ccc(F)cc1: 1 to 10 µM
8) CCOc1ccc(-c2[nH]c(C3(CC)CCN(c4ncnc5[nH]c(C)cc45)CC3)nc2C)cc1: 1 to 10 µM
9) Cc1nc(C2CCN(c3ncnc4[nH]c(-c5cnn(C(F)F)c5)cc34)CC2)[nH]c1-c1ccc(OC(F)(F)F)cc1: 0.0001 to 1 µM
10) COc1cccc(-c2[nH]c(C3(C)CCN(c4ncnc5[nH]c(-c6ccc(C(N)=O)cc6)cc45)CC3)nc2C)c1: 0.0001 to 1 µM

// sample "Cc1nc(C2(C)CCN(c3ncnc4[nH]c(-c5ccc(C(N)=O)cc5)cc34)CC2)[nH]c1-c1ccc(OC(F)F)cc1" , its IC50 was 0.0001 to 1 µM

Memo: "COc1cc(-c2cc3c(N4CCC(c5nc(C)c(-c6ccc(Cl)cc6)[nH]5)CC4)ncnc3[nH]2)ccn1" , reported IC50: 0.0001 to 1 µM

====

# experimentalTarget: c-Kit kinase (Homo sapiens (Human), UniProt P10721)
# Sequence (P10721 26-976): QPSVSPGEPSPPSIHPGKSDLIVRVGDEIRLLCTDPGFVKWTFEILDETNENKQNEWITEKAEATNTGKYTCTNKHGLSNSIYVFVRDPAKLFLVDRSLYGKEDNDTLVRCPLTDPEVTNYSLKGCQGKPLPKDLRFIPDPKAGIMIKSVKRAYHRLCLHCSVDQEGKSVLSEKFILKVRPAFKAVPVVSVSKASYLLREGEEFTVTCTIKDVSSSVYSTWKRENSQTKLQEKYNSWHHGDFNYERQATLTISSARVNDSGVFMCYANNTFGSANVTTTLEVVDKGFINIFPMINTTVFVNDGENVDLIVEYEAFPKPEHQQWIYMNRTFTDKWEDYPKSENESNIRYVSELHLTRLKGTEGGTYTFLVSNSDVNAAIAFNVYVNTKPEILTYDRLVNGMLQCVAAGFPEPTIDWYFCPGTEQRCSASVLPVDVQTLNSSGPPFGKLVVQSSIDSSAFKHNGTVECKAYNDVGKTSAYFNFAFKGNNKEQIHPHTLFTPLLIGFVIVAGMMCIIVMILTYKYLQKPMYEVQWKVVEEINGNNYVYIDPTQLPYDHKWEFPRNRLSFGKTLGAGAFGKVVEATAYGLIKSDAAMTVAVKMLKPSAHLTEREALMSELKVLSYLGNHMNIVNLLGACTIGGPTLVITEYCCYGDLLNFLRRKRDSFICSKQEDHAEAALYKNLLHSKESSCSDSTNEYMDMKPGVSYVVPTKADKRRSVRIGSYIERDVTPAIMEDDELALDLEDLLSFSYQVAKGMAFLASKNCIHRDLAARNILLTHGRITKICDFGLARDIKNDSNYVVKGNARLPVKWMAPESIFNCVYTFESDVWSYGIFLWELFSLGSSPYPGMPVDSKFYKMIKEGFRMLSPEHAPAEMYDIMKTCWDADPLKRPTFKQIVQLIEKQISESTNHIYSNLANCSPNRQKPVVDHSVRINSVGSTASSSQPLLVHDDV
# assay: c-Kit biochemical assay (AlphaScreen kinase activity)
// values below are reported IC50

1) CCOc1ccc(-c2[nH]c(C3(C)CCN(c4ncnc5[nH]c(-c6ccc(C(=O)NC)nc6)cc45)CC3)nc2C)cc1C: 0.0001 to 1 µM
2) COc1ccc(-c2[nH]c(C3(C)CCN(c4ncnc5[nH]c(-c6ccc(NS(C)(=O)=O)cc6)cc45)CC3)nc2C)cc1C: 0.0001 to 1 µM
3) COc1cc(-c2cc3c(N4CCC(c5nc(C)c(-c6ccc(OC(C)C)cc6)[nH]5)CC4)ncnc3[nH]2)ccn1: 0.0001 to 1 µM
4) Cc1ccc(-c2[nH]c(C3CCN(c4ncnc5[nH]c(-c6ccc(F)cc6)cc45)CC3)nc2C)s1: 0.0001 to 1 µM
5) COc1cccc(-c2[nH]c(C3CCN(c4ncnc5[nH]c(-c6ccnc(OC)c6)cc45)CC3)nc2C(F)(F)F)c1: 0.0001 to 1 µM
6) COc1ccc(-c2[nH]c(C3(C)CCN(c4ncnc5[nH]c(-c6ccc(C#N)nc6)cc45)CC3)nc2C)cc1F: 1 to 10 µM
7) Cc1nc(C2(C)CCN(c3ncnc4[nH]c(-c5ccc(F)cc5)cc34)CC2)[nH]c1-c1ccccc1: 0.0001 to 1 µM
8) Cc1nc(C2(C)CCN(c3ncnc4[nH]c(-c5ccc(C(N)=O)cc5)cc34)CC2)[nH]c1-c1ccc(C(F)F)cc1: 0.0001 to 1 µM
9) COc1ccc(-c2[nH]c(C3CCN(c4ncnc5[nH]c(C)cc45)CC3)nc2C)cc1C: 1 to 10 µM
10) COc1ccc(-c2[nH]c(C3(C)CCN(c4ncnc5[nH]c(-c6ccc(C#N)cc6)cc45)CC3)nc2C)cn1: 0.0001 to 1 µM

Record "COc1cc(-c2cc3c(N4CCC(c5nnc(-c6ccc(F)cc6)[nH]5)CC4)ncnc3[nH]2)ccn1" . Reported IC50: 10 to 300 µM

IC50 recorded for this compound, "Cc1cc2c(N3CCC(C)(c4nc(C)c(-c5ccc6c(c5)OCO6)[nH]4)CC3)ncnc2[nH]1" , is 1 to 10 µM

So for "Cc1nc(C2(C)CCN(c3ncnc4[nH]c(-c5ccc(C#N)cc5)cc34)CC2)[nH]c1-c1ccc(C(F)(F)F)cc1" , the logged IC50 turned out to be 0.0001 to 1 µM

# IC50 (compound: "Cc1nc(C2CCN(c3ncnc4[nH]c(-c5ccc(S(N)(=O)=O)cc5)cc34)CC2)[nH]c1-c1ccccc1" ) is 1 to 10 µM

Measured IC50, "COc1ncc(-c2[nH]c(C3(C)CCN(c4ncnc5[nH]c(-c6ccc(C#N)cc6)cc45)CC3)nc2C)cc1F" : 0.0001 to 1 µM

For record "CNC(=O)c1ccc(-c2cc3c(N4CCC(C)(c5nc(C)c(-c6cccc(OC)c6)[nH]5)CC4)ncnc3[nH]2)cn1" the listed IC50 is 0.0001 to 1 µM

IC50 in this record for "Cc1nc(C2(C)CCN(c3ncnc4[nH]c(-c5ccc(F)cc5)cc34)CC2)[nH]c1-c1ccc(F)cc1" : 0.0001 to 1 µM

Form: compound = "CCc1ccc(-c2[nH]c(C3CCN(c4ncnc5[nH]c(-c6ccnc(OC)c6)cc45)CC3)nc2C)cc1" ; IC50 = 0.0001 to 1 µM

Kindly note the recorded IC50 for "CNC(=O)c1ccc(-c2cc3c(N4CCC(C)(c5nc(C)c(-c6ccc(OC(F)F)cc6)[nH]5)CC4)ncnc3[nH]2)cn1" , which is 0.0001 to 1 µM

IC50 in this record for "COc1cc(-c2cc3c(N4CCC(c5nc(C)c(-c6cccc(OC(F)(F)F)c6)[nH]5)CC4)ncnc3[nH]2)ccn1" : 1 to 10 µM

Noted for "COc1ccc(-c2[nH]c(C3(C)CCN(c4ncnc5[nH]c(-c6ccc(F)cc6)cc45)CC3)nc2C)cc1C" : its IC50 reads 0.0001 to 1 µM

IC50 reading for "CCc1ccc(-c2[nH]c(C3CCN(c4ncnc5[nH]c(-c6ccc(F)cc6)cc45)CC3)nc2C)cc1" : 0.0001 to 1 µM

Looking up "COc1ccc(-c2[nH]c(C3(C)CCN(c4ncnc5[nH]c(-c6ccc(C#N)cc6)cc45)CC3)nc2C)cc1C" , I found its IC50 recorded as 0.0001 to 1 µM
